Where these numbers come from: patent US20260327211A1

assay: CYP inhibition / time-dependent inhibition, CYP3A4_Midazolam; assay type: in vitro ADME, human; settings: human, liver microsomes, role: inhibitor; (−)NADPH pre-incubation; substrate midazolam 2.0 μM; read-out: IC50 (−)NADPH CYP3A4_Midazolam
Assay Metric: IC50 (µM)
Write the number in µM without appending the unit.

-- ask IC50 for `O=C(Cc1cncc(-n2cc(Cl)c3cc(Cl)cc(Cl)c32)c1)N[C@@H]1COC[C@H]1O` ?
-- reply 30.5

* * *

Molecular target: CYP2C8 (Homo sapiens)
Construct: pre-incubation of the human liver microsomes with the test compound; tissue Corning; host or cells: human liver microsomes
Sequence (P10632 whole entry): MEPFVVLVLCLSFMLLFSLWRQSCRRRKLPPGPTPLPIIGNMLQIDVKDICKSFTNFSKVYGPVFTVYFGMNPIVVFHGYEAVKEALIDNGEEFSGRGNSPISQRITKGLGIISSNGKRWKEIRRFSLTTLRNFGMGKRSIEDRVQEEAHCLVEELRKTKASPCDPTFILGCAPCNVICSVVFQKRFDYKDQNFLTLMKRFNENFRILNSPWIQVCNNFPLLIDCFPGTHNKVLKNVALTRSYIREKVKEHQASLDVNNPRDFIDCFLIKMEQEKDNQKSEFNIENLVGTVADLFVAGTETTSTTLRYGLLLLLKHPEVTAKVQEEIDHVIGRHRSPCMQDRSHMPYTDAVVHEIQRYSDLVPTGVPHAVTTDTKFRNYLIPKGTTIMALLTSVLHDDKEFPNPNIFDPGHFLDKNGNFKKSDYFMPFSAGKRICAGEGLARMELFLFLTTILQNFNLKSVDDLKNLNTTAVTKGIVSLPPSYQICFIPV
Assay: CYP inhibition / time-dependent inhibition, CYP2C8_Amodiaquine
Type: in vitro ADME
Conditions: role: inhibitor; (+)NADPH pre-incubation; substrate amodiaquine; read-out: IC50 (+)NADPH CYP2C8_Amodiaquine
Method: The time-dependent inactivation potency of the test compound to CYP enzymatic activities was assessed by the pre-incubation of the human liver microsomes with the test compound in the presence and absence of NADPH, followed by the incubation with the discrete marker substrates, as follows. Pre-incubation with human liver microsomes (HLMs): The TDI inactivation potency on CYP enzymatic activities was evaluated through pre-incubation with HLMs (Corning). […]
Assay Metric: pIC50
Field pIC50 (float): negative decimal logarithm of the concentration in molar.

-- ask pIC50 for O=C(Cc1cncc(-n2cc(Cl)c3cc(Cl)cc(Cl)c32)c1)N[C@@H]1COC[C@H]1O [Compound 661] ?
-- reply 4.78

* * *

The entries below come with measured pEC50 values attached.
Biological target: hKv7.4 (Homo sapiens)
Construct: expressed in transfected cells; host or cells: CHO
Sequence (P56696 whole entry): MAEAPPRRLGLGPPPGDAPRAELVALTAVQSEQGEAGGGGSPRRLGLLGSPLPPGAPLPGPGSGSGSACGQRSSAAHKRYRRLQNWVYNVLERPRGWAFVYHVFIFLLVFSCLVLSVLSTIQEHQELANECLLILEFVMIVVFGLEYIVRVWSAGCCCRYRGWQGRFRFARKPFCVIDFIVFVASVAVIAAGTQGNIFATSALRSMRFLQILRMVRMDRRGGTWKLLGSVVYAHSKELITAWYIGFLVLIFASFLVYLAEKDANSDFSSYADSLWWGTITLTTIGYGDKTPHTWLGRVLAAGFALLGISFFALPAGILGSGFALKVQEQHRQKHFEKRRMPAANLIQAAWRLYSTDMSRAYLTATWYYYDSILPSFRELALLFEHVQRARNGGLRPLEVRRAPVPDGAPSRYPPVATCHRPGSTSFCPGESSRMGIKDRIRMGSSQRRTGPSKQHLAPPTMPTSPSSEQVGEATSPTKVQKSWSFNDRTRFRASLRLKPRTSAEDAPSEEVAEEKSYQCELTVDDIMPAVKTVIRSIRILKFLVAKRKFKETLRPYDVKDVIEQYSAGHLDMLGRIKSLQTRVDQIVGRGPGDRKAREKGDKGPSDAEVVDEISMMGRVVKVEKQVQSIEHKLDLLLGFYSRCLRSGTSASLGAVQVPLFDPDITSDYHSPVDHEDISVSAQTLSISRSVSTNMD
Experiment: Kv7.4 HCS, FLIPR potassium assay
Format: cell-based
Conditions: read-out: Kv7.4 EC50 HCS
Procedure: Cell culture: Chinese hamster ovary (CHO) cell-line cells were cultured in F-12 nutrient mixture (Biological Industries) supplemented with 10% fetal bovine serum with 1% penicillin-streptomycin (Biological Industries) in a humidified 5% CO2 incubator at 37° C. To express the appropriate gene either Kv7.3/5, Kv7.4 or TRPA1 5 μg plasmid was transfected using Amaxa, DT-133 program, with p-3 Kit. […]
Field pEC50 (float): negative decimal logarithm of the concentration in molar.

O=C(Cc1cncc(-n2cc(Cl)c3cc(Cl)cc(Cl)c32)c1)N[C@@H]1COC[C@H]1O [Compound 661]; 4.31

Here's the next entry for you.
-- ask pEC50 for O=C(Cc1cc(-n2cc(Cl)c3cc(Cl)cc(Cl)c32)ccc1F)NCCO [Compound 627] ?
-- reply 4.06

* * *

The entries below come with measured pIC50 values attached.
target: hERG (Homo sapiens, UniProt Q12809); assay: hERG HCS, FLIPR potassium assay, CHO/hERG; assay type: cell-based; set-up: host or cells: CHO; conditions: Table 1; read-out: hERG IC50
Sequence (Q12809 whole entry): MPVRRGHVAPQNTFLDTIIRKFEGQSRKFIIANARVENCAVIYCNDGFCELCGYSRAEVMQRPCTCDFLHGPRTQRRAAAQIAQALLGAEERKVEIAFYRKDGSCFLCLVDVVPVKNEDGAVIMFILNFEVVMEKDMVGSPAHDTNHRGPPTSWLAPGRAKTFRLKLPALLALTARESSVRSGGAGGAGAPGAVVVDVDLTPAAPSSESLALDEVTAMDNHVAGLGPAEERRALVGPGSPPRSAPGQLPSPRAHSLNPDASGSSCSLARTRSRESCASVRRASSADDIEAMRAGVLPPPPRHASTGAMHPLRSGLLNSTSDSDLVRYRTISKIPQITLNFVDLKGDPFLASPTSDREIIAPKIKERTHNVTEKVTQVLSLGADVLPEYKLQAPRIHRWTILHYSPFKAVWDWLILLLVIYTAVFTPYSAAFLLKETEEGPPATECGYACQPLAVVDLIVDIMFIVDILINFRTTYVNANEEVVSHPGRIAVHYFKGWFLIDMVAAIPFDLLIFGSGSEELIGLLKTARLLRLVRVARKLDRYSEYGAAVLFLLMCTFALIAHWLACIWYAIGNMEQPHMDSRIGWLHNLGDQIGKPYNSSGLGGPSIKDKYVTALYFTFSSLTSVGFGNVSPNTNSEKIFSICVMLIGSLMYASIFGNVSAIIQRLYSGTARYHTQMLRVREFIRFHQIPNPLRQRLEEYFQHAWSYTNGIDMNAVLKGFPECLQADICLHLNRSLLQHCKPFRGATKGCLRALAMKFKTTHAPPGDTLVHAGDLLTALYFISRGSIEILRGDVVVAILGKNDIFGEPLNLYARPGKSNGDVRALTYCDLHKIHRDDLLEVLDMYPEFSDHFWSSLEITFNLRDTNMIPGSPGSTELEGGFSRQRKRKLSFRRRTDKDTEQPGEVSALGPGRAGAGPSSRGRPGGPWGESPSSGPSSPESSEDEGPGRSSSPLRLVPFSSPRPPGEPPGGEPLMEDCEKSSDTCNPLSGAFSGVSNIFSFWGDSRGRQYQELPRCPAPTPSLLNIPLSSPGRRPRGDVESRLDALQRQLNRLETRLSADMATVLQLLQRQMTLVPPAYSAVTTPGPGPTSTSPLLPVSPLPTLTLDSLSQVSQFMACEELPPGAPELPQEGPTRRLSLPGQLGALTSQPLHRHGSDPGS
pIC50: −log10 of the molar value.

Before answering, review these 4 worked examples.
COC[C@@H](CO)NC(=O)Cc1cc(Sc2c(Cl)cc(Cl)cc2C(C)C)ccc1F; < 5.60
Cc1cn(-c2ccc(F)c(CC(=O)NCC(C)(C)O)c2)c2c(Cl)cc(Cl)cc12; < 5.60
CC(C)c1cc(Cl)cc(Cl)c1C(=O)c1ccc(F)c(CC(=O)NCC(C)(C)O)c1; < 4.46
COC[C@@H](CO)NC(=O)Cc1cc(Sc2c(Cl)cc(F)cc2C(C)C)ccc1F; < 4.64

-- ask pIC50 for `O=C(Cc1cc(-n2cc(Cl)c3cc(Cl)cc(Cl)c32)ccc1F)NCCO` ?
-- reply < 5.60

-- ask pIC50 for `O=C(Cc1cncc(-n2cc(Cl)c3cc(Cl)cc(Cl)c32)c1)N[C@@H]1COC[C@H]1O` ?
-- reply < 4.78

-- ask pIC50 for CC(C)c1cc(Cl)cc(Cl)c1C(O)c1ccc(F)c(CC(=O)NCC(C)(C)O)c1 (stereo not shown) ?
-- reply < 5.60
